Origin of measurements: PubChem BioAssay

# experiment-summary: inhibitors of TNFa-induced NFkB p65 translocation, primary screen, imaging, HUVEC, MLSMR starter and 10KST1 sets (AID 438);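 further: compound added about 3h40 before a 20 min TNFalpha stimulation; signal is the nuclear over cytoplasmic p65 intensity ratio per well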
# run-parameters: HUVEC TNFa-induced p65 nuclear translocation; at 2 µM, hits give high values, 0% TNFa-plus-vehicle, 100% no-TNFa wells
Reported inhibition by item:
Unit % implied. Number only.

Example entries begin here.
compound	inhibition [%]
COC(=O)c1ccc(CN(c2ccccc2OC)S(=O)(=O)c2cccs2)o1	8.1
Cc1cc(C(=O)Nc2cccc(O)c2)c(C)o1	9.9
COc1ccccc1Nc1nc(N)nc(CN2CCN(c3ccccc3F)CC2)n1	-12.1
COc1ccc(N2CCN(C(=O)CSc3nnc(Cn4nnc5ccccc54)n3C)CC2)cc1	5.7
COCCN1CN(S(=O)(=O)c2ccccc2)c2nc3ccccc3nc21	8.3

// sample `COc1ccc2c(c1)C(=NO)c1cc(OC)ccc1-2` , its inhibition was -26.7

Query `Cc1ccc(-c2nn3c(=O)c(C)nnc3s2)cc1` yields inhibition of -19.6

compound `CC(=O)Nc1nc(-c2ccc(Cl)cc2)nc(C)c1C(C)=O` , inhibition observed: 0.5
